Data origin: ChEMBL document CHEMBL1177709

target: Ileal sodium/bile acid cotransporter (Homo sapiens); experiment: Inhibition of human ASBT expressed in MDCK cells assessed as inhibition of [3H]taurocholic acid uptake after 10 mins by liquid scintillation counting
pKi: −log10 of the molar value.
Label Criterion met when pKi >= 5; otherwise Criterion not met.

Molecule | Label Class
CCOC(=O)c1ccc(NC(=O)CCC(NC(=O)CCC(C)C2CCC3C4C(O)CC5CC(O)CCC5(C)C4CCC23C)C(=O)O)cc1 (stereo not given) | Criterion met
COc1cccc(NC(=O)CC[C@H](NC(=O)CC[C@@H](C)[C@H]2CC[C@H]3[C@@H]4[C@H](O)C[C@H]5C[C@H](O)CC[C@]5(C)[C@H]4CC[C@]23C)C(=O)O)c1 | Criterion met
Cc1ccccc1NC(=O)CC[C@H](NC(=O)CC[C@@H](C)[C@H]1CC[C@H]2[C@@H]3[C@H](O)C[C@H]4C[C@H](O)CC[C@]4(C)[C@H]3CC[C@]12C)C(=O)O | Criterion met
C[C@H](CCC(=O)N[C@@H](CCC(=O)Nc1ccc(C(=O)O)cc1)C(=O)O)[C@H]1CC[C@H]2[C@@H]3[C@H](O)C[C@H]4C[C@H](O)CC[C@]4(C)[C@H]3CC[C@]12C | Criterion not met
C[C@H](CCC(=O)N[C@@H](CCC(=O)Nc1ccccc1F)C(=O)O)[C@H]1CC[C@H]2[C@@H]3[C@H](O)C[C@H]4C[C@H](O)CC[C@]4(C)[C@H]3CC[C@]12C | Criterion met
C[C@H](CCC(=O)N[C@@H](CCC(=O)Nc1cccc(C(C)(C)C)c1)C(=O)O)[C@H]1CC[C@H]2[C@@H]3[C@H](O)C[C@H]4C[C@H](O)CC[C@]4(C)[C@H]3CC[C@]12C | Criterion met
C[C@H](CCC(=O)N[C@@H](CCC(=O)Nc1ccc(Cl)cc1)C(=O)O)[C@H]1CC[C@H]2[C@@H]3[C@H](O)C[C@H]4C[C@H](O)CC[C@]4(C)[C@H]3CC[C@]12C | Criterion met
C[C@H](CCC(=O)N[C@@H](CCC(=O)Nc1cccc(N)c1)C(=O)O)[C@H]1CC[C@H]2[C@@H]3[C@H](O)C[C@H]4C[C@H](O)CC[C@]4(C)[C@H]3CC[C@]12C | Criterion not met
C[C@H](CCC(=O)N[C@@H](CCC(=O)Nc1ccc(F)cc1)C(=O)O)[C@H]1CC[C@H]2[C@@H]3[C@H](O)C[C@H]4C[C@H](O)CC[C@]4(C)[C@H]3CC[C@]12C | Criterion met
C[C@H](CCC(=O)N[C@@H](CCC(=O)Nc1cccc(F)c1)C(=O)O)[C@H]1CC[C@H]2[C@@H]3[C@H](O)C[C@H]4C[C@H](O)CC[C@]4(C)[C@H]3CC[C@]12C | Criterion met
C[C@H](CCC(=O)N[C@@H](CCC(=O)NCc1cccc(C(=O)O)c1)C(=O)O)[C@H]1CC[C@H]2[C@@H]3[C@H](O)C[C@H]4C[C@H](O)CC[C@]4(C)[C@H]3CC[C@]12C | Criterion not met
C[C@H](CCC(=O)N[C@@H](CCC(=O)Nc1ccc(C(F)(F)F)cc1)C(=O)O)[C@H]1CC[C@H]2[C@@H]3[C@H](O)C[C@H]4C[C@H](O)CC[C@]4(C)[C@H]3CC[C@]12C | Criterion met
Cc1cccc(NC(=O)CC[C@H](NC(=O)CC[C@@H](C)[C@H]2CC[C@H]3[C@@H]4[C@H](O)C[C@H]5C[C@H](O)CC[C@]5(C)[C@H]4CC[C@]23C)C(=O)O)c1C | Criterion met
COc1ccc(NC(=O)CC[C@H](NC(=O)CC[C@@H](C)[C@H]2CC[C@H]3[C@@H]4[C@H](O)C[C@H]5C[C@H](O)CC[C@]5(C)[C@H]4CC[C@]23C)C(=O)O)cc1 | Criterion met
C[C@H](CCC(=O)N[C@@H](CCC(=O)Nc1cccc(C(=O)O)c1)C(=O)O)[C@H]1CC[C@H]2[C@@H]3[C@H](O)C[C@H]4C[C@H](O)CC[C@]4(C)[C@H]3CC[C@]12C | Criterion not met
CC(CCC(=O)NC(CCC(=O)Nc1cccc(NC(=O)OC(C)(C)C)c1)C(=O)O)C1CCC2C3C(O)CC4CC(O)CCC4(C)C3CCC12C (stereo not given) | Criterion met
C[C@H](CCC(=O)N[C@@H](CCC(=O)Nc1ccc(C(C)(C)C)cc1)C(=O)O)[C@H]1CC[C@H]2[C@@H]3[C@H](O)C[C@H]4C[C@H](O)CC[C@]4(C)[C@H]3CC[C@]12C | Criterion met
CCOC(=O)c1ccccc1NC(=O)CCC(NC(=O)CCC(C)C1CCC2C3C(O)CC4CC(O)CCC4(C)C3CCC12C)C(=O)O (stereo not given) | Criterion met
C[C@H](CCC(=O)N[C@@H](CCC(=O)Nc1ccccc1C(C)(C)C)C(=O)O)[C@H]1CC[C@H]2[C@@H]3[C@H](O)C[C@H]4C[C@H](O)CC[C@]4(C)[C@H]3CC[C@]12C | Criterion met

----------
molecular target: Ileal sodium/bile acid cotransporter (Homo sapiens, UniProt Q12908); experiment: Inhibition of human ASBT expressed in MDCK cells assessed as inhibition of [3H]taurocholic acid uptake after 10 mins by liquid scintillation counting
Sequence (Q12908 whole entry): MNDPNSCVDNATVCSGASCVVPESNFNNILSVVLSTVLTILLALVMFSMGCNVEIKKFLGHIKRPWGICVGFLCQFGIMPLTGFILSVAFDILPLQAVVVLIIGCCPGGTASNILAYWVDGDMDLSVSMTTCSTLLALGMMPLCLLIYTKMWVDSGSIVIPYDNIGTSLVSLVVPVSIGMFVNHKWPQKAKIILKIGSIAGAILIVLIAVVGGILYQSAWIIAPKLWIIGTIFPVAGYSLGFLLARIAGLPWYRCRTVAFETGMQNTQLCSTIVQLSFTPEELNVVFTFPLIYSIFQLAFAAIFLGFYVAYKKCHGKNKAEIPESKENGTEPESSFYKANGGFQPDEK
pKi: −log10 of the molar value.
Reported pKi values for a set of compounds

Given Smiles | Target Desc | pKi
COc1cc(NC(=O)CC[C@H](NC(=O)CC[C@@H](C)[C@H]2CC[C@H]3[C@@H]4[C@H](O)C[C@H]5C[C@H](O)CC[C@]5(C)[C@H]4CC[C@]23C)C(=O)O)cc(OC)c1 | Ileal sodium/bile acid cotransporter (Homo sapiens, UniProt Q12908) | 5.28
Cc1ccc(NC(=O)CC[C@H](NC(=O)CC[C@@H](C)[C@H]2CC[C@H]3[C@@H]4[C@H](O)C[C@H]5C[C@H](O)CC[C@]5(C)[C@H]4CC[C@]23C)C(=O)O)cc1 | Ileal sodium/bile acid cotransporter (Homo sapiens, UniProt Q12908) | 5.49
C[C@H](CCC(=O)N[C@@H](CCC(=O)Nc1cccc(C(=O)O)c1)C(=O)OOCc1ccccc1)[C@H]1CC[C@H]2[C@@H]3[C@H](O)C[C@H]4C[C@H](O)CC[C@]4(C)[C@H]3CC[C@]12C | Ileal sodium/bile acid cotransporter (Homo sapiens, UniProt Q12908) | 5.65
C[C@H](CCC(=O)N[C@@H](CCC(=O)Nc1ccc(F)cc1F)C(=O)O)[C@H]1CC[C@H]2[C@@H]3[C@H](O)C[C@H]4C[C@H](O)CC[C@]4(C)[C@H]3CC[C@]12C | Ileal sodium/bile acid cotransporter (Homo sapiens, UniProt Q12908) | 5.50

----------
biological target: Ileal sodium/bile acid cotransporter (Homo sapiens); assay: Inhibition of human ASBT expressed in MDCK cells assessed as inhibition of [3H]taurocholic acid uptake after 10 mins by liquid scintillation counting

Molecule | Target Desc | Ki (µM)
CC(CCC(=O)NC(CCC(=O)Nc1ccc(NC(=O)OC(C)(C)C)cc1)C(=O)O)C1CCC2C3C(O)CC4CC(O)CCC4(C)C3CCC12C (stereo not given) | Ileal sodium/bile acid cotransporter (Homo sapiens) | 5.26
COc1ccccc1NC(=O)CC[C@H](NC(=O)CC[C@@H](C)[C@H]1CC[C@H]2[C@@H]3[C@H](O)C[C@H]4C[C@H](O)CC[C@]4(C)[C@H]3CC[C@]12C)C(=O)O | Ileal sodium/bile acid cotransporter (Homo sapiens) | 3.89
C[C@H](CCC(=O)N[C@@H](CCC(=O)NCc1ccc(C(=O)O)cc1)C(=O)O)[C@H]1CC[C@H]2[C@@H]3[C@H](O)C[C@H]4C[C@H](O)CC[C@]4(C)[C@H]3CC[C@]12C | Ileal sodium/bile acid cotransporter (Homo sapiens) | 41
COC(=O)c1ccc(NC(=O)CC[C@H](NC(=O)CC[C@@H](C)[C@H]2CC[C@H]3[C@@H]4[C@H](O)C[C@H]5C[C@H](O)CC[C@]5(C)[C@H]4CC[C@]23C)C(=O)O)cc1 | Ileal sodium/bile acid cotransporter (Homo sapiens) | 4.03
Cc1cccc(NC(=O)CC[C@H](NC(=O)CC[C@@H](C)[C@H]2CC[C@H]3[C@@H]4[C@H](O)C[C@H]5C[C@H](O)CC[C@]5(C)[C@H]4CC[C@]23C)C(=O)O)c1 | Ileal sodium/bile acid cotransporter (Homo sapiens) | 0.889
